Reported pKi values follow for various compounds
measurement target: Rat brain delta opioid receptor (Rattus norvegicus, UniProt P33533)
Construct: from tissue; host or cells: rat brain
Sequence (P33533 whole entry): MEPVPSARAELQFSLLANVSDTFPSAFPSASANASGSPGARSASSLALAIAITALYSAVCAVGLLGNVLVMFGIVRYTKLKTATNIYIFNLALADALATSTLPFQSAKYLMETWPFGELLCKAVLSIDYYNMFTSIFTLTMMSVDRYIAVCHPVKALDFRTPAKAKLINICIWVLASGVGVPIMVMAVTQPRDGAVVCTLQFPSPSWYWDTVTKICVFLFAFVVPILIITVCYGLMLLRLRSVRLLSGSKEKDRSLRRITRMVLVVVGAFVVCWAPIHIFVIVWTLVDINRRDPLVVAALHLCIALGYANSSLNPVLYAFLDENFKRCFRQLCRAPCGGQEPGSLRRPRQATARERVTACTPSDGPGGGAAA
assay: Rat brain delta opioid receptor binding
test context: rDOR Ki
Please treat pKi as minus the base-10 logarithm of the molar concentration.

For orientation, consider the following solved cases.
CCN(CC)C(=O)c1ccc2c(c1)Oc1cc(OC)ccc1C2=C1CC2CCC(C1)N2 [Compound 70] : 8.64
CCCNC(=O)c1ccc2c(c1)Oc1ccccc1C2=C1CC2CCC(C1)N2 [Compound 63] : 6.97
CC(C)N(C)C(=O)c1ccc2c(c1)Oc1ccccc1C2=C1CC2CCC(C1)N2 [Compound 92] : 8.68
CCN(CC)C(=O)c1ccc2c(c1)OCc1ccccc1C2=C1CCN(Cc2ccc3c(c2)OCO3)CC1 [Compound 4] : 9.41
CCN(CC)C(=O)c1ccc2c(c1)OCc1ccccc1C2=C1CCN(C)CC1 [Compound 1] : 7.59
CCN(CC)C(=O)c1ccc2c(c1)Oc1ccccc1C2=C1CCN(CCc2ccccc2)CC1 [Compound 22] : 7.34
CCN(CC)C(=O)c1ccc2c(c1)Oc1ccc(Br)cc1C2=C1CC2CCC(C1)N2 [Compound 83] : 6.86

[Q] Look up and state reported pKi for C=CCN1CCC(=C2c3ccccc3COc3cc(C(=O)N(CC)CC)ccc32)CC1 [Compound 6]
[A] 8.37

Source of measurements: patent US7982042B2
